Compiled notes: published IC50 values involving Cyclin-dependent kinase 6 (Homo sapiens, UniProt Q00534).
Answers are plain numbers, in nM.

| MOLECULE | RECORDED_VALUE |
| --- | --- |
| CC(C)N1CCOc2c(F)cc(-c3nc(Nc4cnn(C5CCC(O)CC5)c4)ncc3F)cc21 (stereo not shown) | 45 |
| CCN1CCN(Cc2ccc(Nc3ncc4c(n3)-c3c(nn(CC)c3C(C)C)C(C)(C)C4)nc2)CC1 | 40 |
| CCN1CCN(Cc2ccc(Nc3ncc4c(n3)-c3c(nn(CC)c3C(C)C)C4)nc2)CC1 | 451 |
| CCNc1nc(C)c(-c2ccnc(Nc3ccc(S(C)(=O)=O)cc3)n2)s1 | 6400 |
| CC(=O)C1(C)Cc2cnc(Nc3ccc(N4CCNCC4)cn3)nc2-c2c1nn(C)c2C(C)C (stereo not shown) | 523 |
| CCc1nc2c(n1C1CCCC1)-c1nc(Nc3ccc(N4CCNCC4)cn3)ncc1C2 | 394 |

Could you tell me IC50 for each of these molecules? They are listed below.
1. CC(C)c1c2c(nn1C)C1(CC1)c1cnc(Nc3ccc(N4CCNCC4)cn3)nc1-2
2. CC(C)N1CCOc2c(F)cc(-c3nc(Nc4ccc(S(=O)(=O)N5CCN(C)CC5)cc4)ncc3F)cc21
3. CCN1CCN(Cc2ccc(Nc3ncc(F)c(-c4cc(F)c5c(c4)N(C(C)C)CCO5)n3)cc2F)CC1

[58, 105, 9]

* * *

pIC50 for Cyclin-dependent kinase 6 (Homo sapiens) - collated from the literature.
pIC50: −log10 of the molar value.

Solved cases below.
| MOLECULE | pIC50 |
| --- | --- |
| O=C1N(C2CCCC2)c2nc(Nc3ccc(N4CCNCC4)cn3)ncc2OC12CCCCCC2 | 7.00 to 7.70 |
| CC1(C)Oc2cnc(Nc3ccc(N4CCNCC4)cn3)nc2N(C2CCCC2)C1=O | ≥ 7.70 |
| CC(C)c1c2c(nn1C)C(C)(C(C)O)Cc1cnc(Nc3ccc(N4CCNCC4)cn3)nc1-2 (centres unmarked) | 6.12 |
| CCN1CCN(Cc2ccc(Nc3ncc(F)c(-c4ccc5c(ccn5C(C)C)c4)n3)nc2)CC1 | ≥ 7.70 |

Go through the items and report each one's pIC50.
1. CC(C)N1CCOc2c(F)cc(-c3nc(Nc4ccc(C5CCN(C(=O)CN(C)C)CC5)cn4)ncc3F)cc21
2. CN(C)C(=O)C1Oc2cnc(Nc3ccc(N4CCNCC4)cn3)nc2N(C2CCCC2)C1=O (centres unmarked)
3. CC(C)c1c(C(=O)N(C)C)sc2cnc(Nc3ccc(N4CCNCC4)cn3)cc12
4. CCN1CCN(Cc2ccc(Nc3ncc(F)c(-c4ccc5c(n4)c(C(F)(F)F)nn5C4CCCC4)n3)nc2)CC1

[9.52, "≥ 7.70", 7.97, "7.00 to 7.70"]

* * *

Collected literature values of pIC50 measured for Cyclin-dependent kinase 6 (Homo sapiens).
pIC50: −log10 of the molar value.
Would you please tag the item y when its pIC50 is 7 or above, and n when it is below?

The examples below pair each entry with its known result.
| COMPOUND | LABEL |
| --- | --- |
| CC(C)N1CCOc2c(F)cc(-c3nc(Nc4ccc(CN5CCC(N(C)C)CC5)c(F)c4)ncc3F)cc21 | y |
| CCN1CCN(Cc2ccc(Nc3ncc4c(n3)N(C3CCCC3)C(=O)C(C#N)O4)nc2)CC1 (centres unmarked) | y |
| CC(C)N1CCOc2c(F)cc(-c3nc(Nc4ccc5c(c4)CCN(C(=O)CN(C)C)C5)ncc3F)cc21 | y |

Answer whether pIC50 of Cc1c(C(=O)N(C)C)sc2cnc(Nc3ccc(N4CCNCC4)cn3)cc12 is greater than or equal to 7.
n

Entry CN(C)C(=O)c1sc2cnc(Nc3ccc(N4CCN(C(=O)C(O)CO)CC4)cn3)cc2c1C1CCCC1 (centres unmarked) : is its pIC50 no less than 7?
y
